The measured values listed here are drawn from patent US20040106626A1.

# assay system: recombinant soluble tissue factor and recombinant human factor VIIa (TF-VIIa) (Homo sapiens)
# Construct: conversion of coagulation factor VII to VIIa by factor Xa
# Sequence (P08709 213-466 limits assumed): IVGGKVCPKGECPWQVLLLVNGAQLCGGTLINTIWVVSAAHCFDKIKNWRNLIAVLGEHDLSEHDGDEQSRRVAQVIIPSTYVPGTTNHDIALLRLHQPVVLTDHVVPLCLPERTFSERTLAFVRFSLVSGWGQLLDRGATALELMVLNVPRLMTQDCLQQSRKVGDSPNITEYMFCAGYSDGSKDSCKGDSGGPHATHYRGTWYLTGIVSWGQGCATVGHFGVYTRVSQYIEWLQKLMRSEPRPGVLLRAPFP
# Sequence (P08709 61-212 limits assumed): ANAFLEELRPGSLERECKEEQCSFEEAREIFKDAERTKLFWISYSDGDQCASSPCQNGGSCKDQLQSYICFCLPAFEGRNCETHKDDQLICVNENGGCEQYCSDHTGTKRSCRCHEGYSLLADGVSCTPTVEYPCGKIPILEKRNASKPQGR
# Sequence (P13726 33-251 partner limits assumed): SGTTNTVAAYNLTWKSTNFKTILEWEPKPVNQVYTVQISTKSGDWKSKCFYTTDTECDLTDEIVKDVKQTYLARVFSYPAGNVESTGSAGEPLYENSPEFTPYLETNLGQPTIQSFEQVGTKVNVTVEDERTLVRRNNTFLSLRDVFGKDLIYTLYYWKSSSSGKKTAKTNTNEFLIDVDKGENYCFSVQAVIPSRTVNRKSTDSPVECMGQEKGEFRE
# procedure text: TF-VIIa assay (chromogenic substrate hydrolysis)
# measurement parameters: reported only as less than or greater than 0.1 uM
Reported IC50 is given for each of the following compounds.

Exam item: Consider the compound CC(C)CNC(=O)c1cc(N)cc(-c2cnc(NC(C)C)c(=O)n2CC(=O)NCc2ccc(C(=N)N)cc2)c1 [Example 27] and give its measured IC50.
Marked response: < 100 nM

Exam item: What does the record list as IC50 for CC(C)Nc1ncc(-c2cc(N)cc(O)c2)n(CC(=O)NCc2ccc(C(=N)N)cc2)c1=O ?
Marked response: < 100 nM

# context switch: different compound, same IC50
Exam item: GET /values?readout=IC50&item= CC(C)Nc1ncc(-c2cc(N)cc(NCCC(C)c3ccccc3)c2)n(CC(=O)NCc2ccc(C(=N)N)cc2)c1=O (stereo not drawn)
Marked response: < 100 nM
